Measured values drawn from paper PMC5518475 for this set.

Biological target: hM4 (Homo sapiens)
Sequence (P08173 whole entry): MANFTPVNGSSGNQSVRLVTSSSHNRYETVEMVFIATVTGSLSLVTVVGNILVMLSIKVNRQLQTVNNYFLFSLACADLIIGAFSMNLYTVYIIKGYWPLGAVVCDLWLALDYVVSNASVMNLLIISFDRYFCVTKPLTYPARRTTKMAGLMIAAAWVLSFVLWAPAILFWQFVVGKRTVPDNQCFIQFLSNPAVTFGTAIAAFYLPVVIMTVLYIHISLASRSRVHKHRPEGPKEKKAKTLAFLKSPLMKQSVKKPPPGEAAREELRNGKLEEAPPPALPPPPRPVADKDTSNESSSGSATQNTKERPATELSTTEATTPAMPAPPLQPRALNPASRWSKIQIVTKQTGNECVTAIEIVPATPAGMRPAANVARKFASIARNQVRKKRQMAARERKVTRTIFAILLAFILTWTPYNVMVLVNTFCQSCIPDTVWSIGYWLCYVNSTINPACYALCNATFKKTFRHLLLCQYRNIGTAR
Assay type: cell-based
Conditions: hM4/Gqi5-CHO cells; EC20 fixed concentration of acetylcholine; mean of n=3
# hM4 pEC50 (±SEM) values compiled below
Quick one: just the number, no unit, thanks!

Look over these answered cases.
> print(dat)
                                    compound  assayresult
 1  Cc1nnc2sc(C(=O)NC3CN(c4cccnc4F)C3)c(N)c2c1C [Compound 16i]         7.74
 2  Cc1nnc2sc(C(=O)NC3CN(c4ccc(S(=O)(=O)C(F)F)cc4)C3)c(N)c2c1C [Compound 17g]         6.63
 3  Cc1nnc2sc(C(=O)NC3CN(c4ccccn4)C3)c(N)c2c1C [Compound 16d]         6.99
 4  Cc1nnc2sc(C(=O)NC3CN(c4ccnc(Cl)c4)C3)c(N)c2c1C [Compound 16n]         6.80
 5  Cc1cccc(OC(=O)N2CC(NC(=O)c3sc4nnc(C)c(C)c4c3N)C2)c1         7.23
 6  Cc1nnc2sc(C(=O)NC3CN(C(=O)OCc4ccccc4)C3)c(N)c2c1C         7.62
 7  Cc1nnc2sc(C(=O)NC3CN(c4ccc(F)cc4F)C3)c(N)c2c1C [Compound 17h]         7.49
 8  Cc1nnc2sc(C(=O)NC3CN(c4ccncn4)C3)c(N)c2c1C [Compound 16h]         7.48
 9  Cc1nnc2sc(C(=O)NC3CN(C(=O)c4ccccc4)C3)c(N)c2c1C         6.22
10  Cc1nnc2sc(C(=O)NC3CN(c4nc5cccnc5s4)C3)c(N)c2c1C [Compound 16c]         7.04

Param readout = hM4 pEC50 (±SEM); param system = hM4 (Homo sapiens); param query = Cc1nnc2sc(C(=O)NC3CN(c4nc5ccccc5o4)C3)c(N)c2c1C [Compound 16b] ; response: value 6.45

----------
Assay: Dog in vivo PK
Conditions: female, mongrel, plasma, iv
measurementName: clearance (mL/min/kg)
The reply should be a number in mL/min/kg, with the unit left off.

Look up clearance for this compound: Cc1nnc2sc(C(=O)NC3CN(c4cccc(F)c4F)C3)c(N)c2c1C [Compound 17j] 17
